Cited source: PubChem BioAssay AID463173

- System: DeltatarO mutant
- Protocol: S. aureus survival, RN4220 and DeltatarO strains – OD600, teichoic acid synthesis inhibitors, primary screen (AID 463173)
- Experimental Parameters: S. aureus RN4220 wild type/DeltatarO growth, OD600, 18 h, hits give low values, screened at 18.75 µg/mL (by protocol)
The campaign covered roughly 52,000 compounds. About 4,300 (8.3%) were called active. Shown is part of a subset that was picked to be rich in actives.
Condition met if survival is below 90%. Condition not met if not; exact matches included in Condition not met.

- Molecule: "CCc1ccc(NC(=O)CC2C(=O)N(c3ccc(Cl)cc3)C(=O)N2Cc2cccs2)cc1 (stereo not given)"
  Category Label: "Condition met"
- Molecule: "COc1ccc2c(c1)c1c(c(=O)n(-c3ccccc3C)c(=O)n1CC(=O)NCc1ccc(C)cc1)n2C"
  Category Label: "Condition met"
- Molecule: "COc1cc2ccccc2cc1C(=O)Nc1ccc2oc(-c3ccc(F)cc3)nc2c1"
  Category Label: "Condition met"
- Molecule: "Cc1cc(F)ccc1NC(=O)CCSc1nc(-c2ccco2)cc(C(F)(F)F)n1"
  Category Label: "Condition met"
- Molecule: "COc1cc2ccccc2cc1C(=O)Nc1ccc2oc(-c3ccc(F)cc3Cl)nc2c1"
  Category Label: "Condition met"
- Molecule: "Cc1cc(C)c(NC(=O)CN2C(=O)CCSc3ccc(S(=O)(=O)N4CCCC4)cc32)c(C)c1"
  Category Label: "Condition met"
- Molecule: "CCN(C(=O)Cc1ccccc1OC)c1nnc(-c2ccncc2)s1"
  Category Label: "Condition met"
- Molecule: "O=C(CN1C(=O)COc2ccc(S(=O)(=O)Nc3ccccc3)cc21)Nc1cccc(Cl)c1"
  Category Label: "Condition not met"
- Molecule: "CCCSc1oc(-c2cccs2)nc1S(=O)(=O)c1ccc(Cl)cc1"
  Category Label: "Condition met"
- Molecule: "CCc1ccc(NC(=O)C(CC)n2nnc(C(=O)OC)c2C(=O)OC)cc1 (stereo not given)"
  Category Label: "Condition met"
- Molecule: "COc1ccc(C(=O)Nc2ccc3oc(-c4ccc5ccccc5c4)nc3c2)cc1Br"
  Category Label: "Condition met"
- Molecule: "CN(Cc1ccccc1)c1ncnc2c1nnn2C"
  Category Label: "Condition met"
- Molecule: "CC(Oc1ccccc1)C(=O)Nc1nc2ccc(S(N)(=O)=O)cc2s1 (stereo not given)"
  Category Label: "Condition not met"
- Molecule: "COc1cc2ccccc2cc1C(=O)Nc1ccc2oc(-c3ccccc3)nc2c1"
  Category Label: "Condition met"
- Molecule: "CCNS(=O)(=O)c1ccc(NC(=O)CSc2nc(-c3ccco3)cc(C(F)(F)F)n2)cc1"
  Category Label: "Condition met"
- Molecule: "CCC(C(=O)Nc1cc(C)ccc1OC)n1nnc(C(=O)OC)c1C(=O)OC (stereo not given)"
  Category Label: "Condition not met"
- Molecule: "Cc1cccc(-c2nc3cc(NC(=O)COc4ccccc4F)ccc3o2)c1"
  Category Label: "Condition not met"
- Molecule: "COC(=O)C1=C(N)OC2=C(C(=O)CCC2)C1c1ccc(OC)cc1 (stereo not given)"
  Category Label: "Condition not met"
- Molecule: "COc1cc2ccccc2cc1C(=O)Nc1ccc2oc(-c3ccc(Cl)cc3)nc2c1"
  Category Label: "Condition met"
- Molecule: "O=S(=O)(c1ccc(Cl)cc1)c1nc(-c2cccs2)oc1N1CCCCC1"
  Category Label: "Condition met"
- Molecule: "CCn1nc(C)c2c(-c3ccccc3)cc(=O)n(C(C)C(=O)NCCc3ccc(Cl)cc3)c21 (stereo not given)"
  Category Label: "Condition met"
- Molecule: "C=CCNC(=O)CSc1nc2cc(C)cc(C)c2cc1C#N"
  Category Label: "Condition met"
- Molecule: "Cc1ccc(S(=O)(=O)c2nc(-c3cccs3)oc2N2CCC(C)CC2)cc1"
  Category Label: "Condition met"
- Molecule: "CC(=O)c1ccc(NC(=O)c2nc(-c3ccc(C)cc3)n3c2CCCCC3)cc1"
  Category Label: "Condition met"
- Molecule: "Cc1ccc(C(=O)Nc2ccc(NC(=O)c3cccs3)cc2)cc1C"
  Category Label: "Condition met"
- Molecule: "CCc1cccc(CC)c1NC(=O)c1c(C)oc2ccc(O)c(CN3CCCC3)c12"
  Category Label: "Condition not met"
- Molecule: "O=C(CC1Nc2ccccc2NC1=O)Nc1cccc2ccccc12 (stereo not given)"
  Category Label: "Condition not met"
